test system: S. aureus; experiment: MICs of antimicrobials with small molecule MDR inhibitor (I) and high pH; assay type: cell-based, Staphylococcus aureus; settings: pH 9 + I
This listing pairs compounds with measured MIC.

Field: example entries. Status: answers known.
compound="C[n+]1cc2c3c(ccc2c2ccc4cc5c(cc4c21)OCO5)OCO3 [Sanguinarine]" result_value="0.15 µg/mL"
compound="N=C(N)c1ccc(OCCCCCOc2ccc(C(=N)N)cc2)cc1 [Pentamidine]" result_value="0.02 µg/mL"
compound="COc1cc2c(cc1OC)-c1cc3ccc(OC)c(OC)c3c[n+]1CC2 [Palmatine]" result_value="0.08 µg/mL"
compound="COc1ccc2cc3[n+](cc2c1OC)CCc1cc2c(cc1-3)OCO2 [Berberine]" result_value="0.0125 µg/mL"

## Input Read the entry [H]/N=C(\N/C(=N/[H])NCCCCCCNC(=N)NC(=N)Nc1ccc(Cl)cc1)Nc1ccc(Cl)cc1 [Chlorhexidine] and write its reported MIC.
## Output 0.0037 µg/mL

###

test system: Staphylococcus aureus RN 4222 (WT); test: MIC determination in wild type S. aureus; assay type: cell-based; details: Staphylococcus aureus
This listing pairs compounds with measured MIC.
Please reply with the bare figure in µg/mL and do not write the unit itself.

Field: example entries. Status: answers known.
compound="CN[C@H](CC(C)C)C(=O)N[C@H]1C(=O)N[C@@H](CC(N)=O)C(=O)N[C@H]2C(=O)N[C@H]3C(=O)N[C@H](C(=O)N[C@H](C(=O)O)c4cc(O)cc(O)c4-c4cc3ccc4O)[C@H](O)c3ccc(c(Cl)c3)Oc3cc2cc(c3O[C@@H]2O[C@H](CO)[C@@H](O)[C@H](O)[C@H]2O[C@H]2C[C@](C)(N)[C@H](O)[C@H](C)O2)Oc2ccc(cc2Cl)[C@H]1O [Vancomycin]" units_of_measure=µg/mL result_value=1.5
compound="CC[C@H]1OC(=O)[C@H](C)[C@@H](O[C@H]2C[C@@](C)(OC)[C@@H](O)[C@H](C)O2)[C@H](C)[C@@H](O[C@@H]2O[C@H](C)C[C@H](N(C)C)[C@H]2O)[C@](C)(O)C[C@@H](C)C(=O)[C@H](C)[C@@H](O)[C@]1(C)O [Erythromycin]" units_of_measure=µg/mL result_value=0.195
compound="CC[n+]1c(-c2ccccc2)c2cc(N)ccc2c2ccc(N)cc21 [EtBr, ethidium bromide]" units_of_measure=µg/mL result_value=5

## Input Read the entry [Br-].c1ccc([P+](c2ccccc2)(c2ccccc2)c2ccccc2)cc1 [TPP, tetraphenylphosphonium bromide] and write its reported MIC.
## Output 15.6

###

tested on: Staphylococcus aureus RN 4222 (WT); assay: MIC determination in wild type S. aureus; format: cell-based; settings: RN 4222 (WT), +R (20 μg/mL reserpine)
This listing pairs compounds with measured MIC.
Please reply with the bare figure in µg/mL and do not write the unit itself.

Field: example entries. Status: answers known.
compound=CCn1cc(C(=O)O)c(=O)c2cc(F)c(N3CCNCC3)cc21 parameter_measured=MIC units_of_measure=µg/mL result_value=0.67
compound=O=C(O)c1cn(C2CC2)c2cc(N3CCNCC3)c(F)cc2c1=O parameter_measured=MIC units_of_measure=µg/mL result_value=0.33
compound="CC[n+]1c(-c2ccccc2)c2cc(N)ccc2c2ccc(N)cc21 [EtBr, ethidium bromide]" parameter_measured=MIC units_of_measure=µg/mL result_value=1.25

Let us examine a further case.
## Input With Staphylococcus aureus RN 4222 (WT) as the test system, provide measured MIC for this compound: [Br-].c1ccc([P+](c2ccccc2)(c2ccccc2)c2ccccc2)cc1 [TPP, tetraphenylphosphonium bromide]
## Output 7.8
